Would you mind telling me the reported % Activation at 10 uM of each entry?
system-tested: Full-length glucokinase (beta cell isoform) (Homo sapiens)
Construct: Full-length glucokinase (beta cell isoform) was His-tagged at N-terminus; His tag (N); made in house
Sequence (P35557 whole entry, species assumed, canonical isoform): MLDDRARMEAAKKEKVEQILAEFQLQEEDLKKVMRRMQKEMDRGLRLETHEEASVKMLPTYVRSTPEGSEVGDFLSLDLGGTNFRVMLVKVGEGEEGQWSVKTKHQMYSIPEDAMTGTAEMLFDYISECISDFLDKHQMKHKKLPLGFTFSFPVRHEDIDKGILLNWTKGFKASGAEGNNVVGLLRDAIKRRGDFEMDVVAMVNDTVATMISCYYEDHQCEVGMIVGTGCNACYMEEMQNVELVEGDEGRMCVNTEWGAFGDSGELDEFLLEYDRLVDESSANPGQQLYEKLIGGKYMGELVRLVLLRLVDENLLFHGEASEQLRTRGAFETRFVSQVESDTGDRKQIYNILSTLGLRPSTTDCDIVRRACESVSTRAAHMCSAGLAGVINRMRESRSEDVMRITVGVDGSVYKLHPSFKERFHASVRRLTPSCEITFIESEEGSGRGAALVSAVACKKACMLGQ
test-method-notes: Glucokinase biochemical assay (PK/LDH-coupled, NADH depletion at 340 nm): % activation, EC50, % max activation
setup-conditions: 10 uM compound; 5 mM glucose; % Activation=(Va/Vo−1)×100
Report the figure in % without appending any unit label.

Give the measured % Activation at 10 uM of Cn1ccc(NC(=O)c2cc(Oc3ccc(C(=O)N4CCC4)c(F)c3)c3c(c2)OC(C)(C)C3)n1 [Example 33] .
170

Give the measured % Activation at 10 uM of CC1Cc2c(Oc3ccc(S(C)(=O)=O)cc3)cc(C(=O)Nc3ccn(C)n3)cc2O1 (single isomer, unassigned; (-)) [Example 12] .
162

Give the measured % Activation at 10 uM of Cc1ccc(NC(=O)c2cc(OCc3ccccc3Cl)c3c(c2)OC(C)(C)CC3)nc1 [Example 374] .
17.7

Give the measured % Activation at 10 uM of COCC1Cc2c(Oc3ccc(C(=O)N(C)C)c(F)c3)cc(C(=O)Nc3ccn(C)n3)cc2O1 (single isomer, unassigned; (-)) [Example 206] .
91.3

Give the measured % Activation at 10 uM of COCC1(C)Cc2c(Oc3ccc(S(=O)(=O)C4CC4)cc3)cc(C(=O)Nc3ccn(C)n3)cc2O1 (single isomer, unassigned; (-)) [Example 247] .
252

Give the measured % Activation at 10 uM of CC1Cc2c(Oc3ccc(S(C)(=O)=O)cc3)cc(C(=O)Nc3ccn(C)n3)cc2O1 (single isomer, unassigned; (+)) [Example 13] .
182

Give the measured % Activation at 10 uM of Cc1ccc(NC(=O)c2cc(OCc3ccccc3Cl)cc3c2CCC(C)(C)O3)nc1 [Example 375] .
5.6

Give the measured % Activation at 10 uM of COCC1(C)Cc2c(Oc3ccc(S(=O)(=O)C4CC4)cc3)cc(C(=O)Nc3ccn(C)n3)cc2O1 (single isomer, unassigned; (+)) [Example 248] .
222

Give the measured % Activation at 10 uM of COCC1Cc2c(Oc3ccc(C(=O)N(C)C)cc3)cc(C(=O)Nc3ccn(C)n3)cc2O1 (single isomer, unassigned; (+)) [Example 212] .
111

Give the measured % Activation at 10 uM of COCC1Cc2c(Oc3ccc(C(=O)N4CCC4)cc3)cc(C(=O)Nc3ccn(C)n3)cc2O1 (single isomer, unassigned; (+)) [Example 210] .
130

Give the measured % Activation at 10 uM of COCC1Cc2c(Oc3ccc(C(=O)N4CCC4)cc3)cc(C(=O)Nc3ccn(C)n3)cc2O1 (single isomer, unassigned; (-)) [Example 209] .
87

Give the measured % Activation at 10 uM of COCC1(C)Cc2c(Oc3ccc(S(=O)(=O)C4CC4)cc3)cc(C(=O)Nc3cnn(C)n3)cc2O1 (single isomer, unassigned; (+)) [Example 249] .
276

Give the measured % Activation at 10 uM of COCC1Cc2c(Oc3ccc(C(=O)N(C)C)c(F)c3)cc(C(=O)Nc3ccn(C)n3)cc2O1 (single isomer, unassigned; (+)) [Example 207] .
127

Give the measured % Activation at 10 uM of Cn1ccc(NC(=O)c2cc(Oc3ccc(CO)cc3F)c3c(c2)OC(C)(C)C3)n1 [Example 40] .
109

Give the measured % Activation at 10 uM of COCC1(C)Cc2c(Oc3ccc(C(=O)N4CCC4)c(F)c3)cc(C(=O)Nc3ccn(C)n3)cc2O1 (single isomer, unassigned; (+)) [Example 244] .
287

Give the measured % Activation at 10 uM of COCC1Cc2c(Oc3ccc(C(=O)N(C)C)cc3)cc(C(=O)Nc3ccn(C)n3)cc2O1 (single isomer, unassigned; (-)) [Example 213] .
83.1

Give the measured % Activation at 10 uM of COCC1(C)Cc2c(Oc3ccc(S(=O)(=O)C4CC4)cc3)cc(C(=O)Nc3cnn(C)n3)cc2O1 (single isomer, unassigned; (+)) [Example 250] .
227

Value source: patent US8119624B2
